Record form. Attribute: shrunken log2 fold change. Fill in for each entry.
system: Escherichia coli TOP10; experiment: shrunken log2 fold change of peptide-encoding DNA abundance (4.5 h post-induction vs induction); higher = less antimicrobial activity (less host growth inhibition); details: time post-induction: 4.5 h; library: site-saturation at positions 5, 18, 19, 20;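 also: peptides expressed intracellularly from a pBAD plasmid library in pooled LB shake-flask culture, induced with 0.3% L-arabinose, DNA abundance read by NGS, three biological replicates, DESeq2 with apeglm shrinkage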
Answers are plain numbers.

Worked examples follow.
[
  {
    "primary_sequence": "RRIRRRPPRLPRPRPRPNPKPRP",
    "shrunken log2 fold change": 0.172
  },
  {
    "primary_sequence": "RRIRLRPPRLPRPRPRPLLIPRP",
    "shrunken log2 fold change": -0.514
  },
  {
    "primary_sequence": "RRIRRRPPRLPRPRPRPRWGPRP",
    "shrunken log2 fold change": 0.533
  },
  {
    "primary_sequence": "RRIRIRPPRLPRPRPRPQADPRP",
    "shrunken log2 fold change": -0.0941
  }
]

Switching to the query record.
Asked: Look at this sequence and give its reported shrunken log2 fold change. RRIRCRPPRLPRPRPRPLRSPRP
Given back: 0.482
